Where do the numbers come from? From the supplement of paper PMC12783771.

B1: library; a variant is named by its letters at X, in order (parent)
chain: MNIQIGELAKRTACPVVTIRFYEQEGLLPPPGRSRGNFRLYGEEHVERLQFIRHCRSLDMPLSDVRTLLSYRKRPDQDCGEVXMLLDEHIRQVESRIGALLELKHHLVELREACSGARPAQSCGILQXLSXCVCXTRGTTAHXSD

- Variants of: B1
- assay.name: sfGFP reporter fluorescence (15 h) (µM FITC); higher = stronger transcriptional activation
- condition.description: library round: Round 2; ligand: 1 µM Pb
Give yes (1) when the value for sfGFP reporter fluorescence is at least 0.2. Give no (0) when it is less.

Worked examples follow.
>>> qualitative_label("MNIQIGELAKRTACPVVTIRFYEQEGLLPPPGRSRGNFRLYGEEHVERLQFIRHCRSLDMPLSDVRTLLSYRKRPDQDCGEVNMLLDEHIRQVESRIGALLELKHHLVELREACSGARPAQSCGILQGLSACVCPTRGTTAHYSD [NGAPY]")
"no (0)"
>>> qualitative_label("MNIQIGELAKRTACPVVTIRFYEQEGLLPPPGRSRGNFRLYGEEHVERLQFIRHCRSLDLPLSKVRTLLSYRKRPDQDCGEVNMLLDEHIRQVESRIGALLELKHHLVELREACSGARPAQSCGILQGLSACVCDTRGTTAHPSD [NGADP M60L D64K]")
"yes (1)"
>>> qualitative_label("MNIQIGELAKRTACPVVTIRFYEQEGLLPPPGRSRGNFRLYGEEHVERLQFIRHCRSLDMPLSDVRTLLSYRKRPDQDCGEVSMLLDEHIRQVESRIGALLELKHHLLELREACSGARPAQSCGILQGLSDCVCDTRGTTAHWSD [SGDDW V108L]")
"no (0)"

Assess whether reported sfGFP reporter fluorescence for MNIQIGELAKRTACPVVTIRFYEQEGLLPPPGRSRGNFRLYGEEHVERLQFIRHCRSLDMPLSDVRTLLSYRKRPDQDCGEVNMLLDEHIRQVESRIGALLELKHHLVELREACSGARPAQSCGILQILSACVCPTRGTTAHPSD [NIAPP] sits at 0.2 or higher.
yes (1)

Assess whether reported sfGFP reporter fluorescence for MNIQIGELAKRTACPVVTIRFYEQEGLLPPPGRSRGNFRLYGEEHVERLQFIRHCRSLDMPLSDVRTLLSYRKRPDQDCGEVTMLLDEHIRQVESRIGALLELKHHLLELREACSGARPAQSCGILQGLSACVCDTRGTTAHPSD [TGADP V108L] sits at 0.2 or higher.
no (0)

Assess whether reported sfGFP reporter fluorescence for MNIQIGELAKRTACPVVTIRFYEQEGLLPPPGRSRGNFRLYGEEHVERLQFIRHCRSLDMPLSDVRTLLSYRKRPDQDCGEVNMLLDEHIRQVESRIGALLELRHHLVELREACSGARPAQSCGILQILSCCVCDTRGTTAHPSD [NICDP K104R] sits at 0.2 or higher.
no (0)
